PARAMETER MEASURED: IC50 (nM)
Provide only the numeric value, understood in nM.

Req: Print RORc ligand binding domain (Homo sapiens, UniProt P51449) IC50 for CC(C)(C)OC(=O)N[C@]12CC[C@H](c3cc(-c4c(F)cccc4F)nnc31)C2(C)C [Example 256] .
Resp: 2330

Req: Print RORc ligand binding domain (Homo sapiens, UniProt P51449) IC50 for CC1(C)[C@H]2CC[C@]1(c1ccno1)c1nnc(-c3c(F)cccc3F)cc12 [Example 194] .
Resp: 50

Req: Print RORc ligand binding domain (Homo sapiens, UniProt P51449) IC50 for CC1(C)CN(C(=O)[C@]23CC[C@H](c4cc(-c5c(F)cccc5F)nnc42)C3(C)C)C1 [Example 74] .
Resp: 693

Req: Print RORc ligand binding domain (Homo sapiens, UniProt P51449) IC50 for CC1(C)[C@H]2CC[C@]1(C(=O)N1CC(F)(F)C1)c1nnc(-c3ccccc3F)cc12 [Example 172] .
Resp: 1410

Req: Print RORc ligand binding domain (Homo sapiens, UniProt P51449) IC50 for CC1(C)[C@@H]2CC[C@@]1(C(=O)NCc1ccc(F)cc1)c1nnc(-c3ccccc3F)cc12 [Example 133] .
Resp: 876

Req: Print RORc ligand binding domain (Homo sapiens, UniProt P51449) IC50 for CC1(C)[C@H]2CC[C@]1(C(=O)N1CC(OCc3ccccc3)C1)c1nnc(-c3c(F)cccc3F)cc12 [Example 198] .
Resp: 3250

Req: Print RORc ligand binding domain (Homo sapiens, UniProt P51449) IC50 for CC1(C)[C@H]2CC[C@]1(c1ccn[nH]1)c1nnc(-c3c(F)cccc3F)cc12 [Example 113] .
Resp: 43

Req: Print RORc ligand binding domain (Homo sapiens, UniProt P51449) IC50 for CC1(C)[C@@H]2CC[C@@]1(CNCC(F)F)c1nnc(-c3c(F)cccc3F)cc12 [Example 328] .
Resp: 74

Req: Print RORc ligand binding domain (Homo sapiens, UniProt P51449) IC50 for CC1(C)[C@@H]2CC[C@@]1(C(=O)N1CCC(C(F)(F)F)C1)c1nnc(-c3c(F)cccc3F)cc12 (stereo partly drawn) [Example 208] .
Resp: 142

Req: Print RORc ligand binding domain (Homo sapiens, UniProt P51449) IC50 for Cn1cc(-c2cc3c(nn2)[C@@]2(C)CC[C@@H]3C2(C)C)cn1 [Example 96] .
Resp: 5480

Req: Print RORc ligand binding domain (Homo sapiens, UniProt P51449) IC50 for CC1(C)[C@@H]2CC[C@@]1(C(=O)N1CCC3CC31)c1nnc(-c3c(F)cccc3F)cc12 (stereo partly drawn) [Example 223] .
Resp: 196

Req: Print RORc ligand binding domain (Homo sapiens, UniProt P51449) IC50 for CC1(C)[C@H]2CC[C@]1(C(=O)Nc1ccc(C#N)nc1)c1nnc(-c3ccccc3F)cc12 (stereo in doubt) [Example 169] .
Resp: 3270

Req: Print RORc ligand binding domain (Homo sapiens, UniProt P51449) IC50 for CC1(C)[C@H]2CC[C@]1(N1CCNC1=O)c1nnc(-c3c(F)cccc3F)cc12 [Example 184] .
Resp: 171

Req: Print RORc ligand binding domain (Homo sapiens, UniProt P51449) IC50 for CC1(C)[C@@H]2CC[C@@]1(N1CCNC1=O)c1nnc(-c3c(F)cccc3F)cc12 [Example 252] .
Resp: 1580

Req: Print RORc ligand binding domain (Homo sapiens, UniProt P51449) IC50 for CC1(C)[C@H]2CC[C@]1(c1ccccn1)c1nnc(-c3c(F)cccc3F)cc12 [Example 153] .
Resp: 24

Req: Print RORc ligand binding domain (Homo sapiens, UniProt P51449) IC50 for COC[C@@]12CC[C@@H](c3cc(-c4ccccc4F)nnc31)C2(C)C [Example 28] .
Resp: 210

Req: Print RORc ligand binding domain (Homo sapiens, UniProt P51449) IC50 for CC1(C)[C@@H]2CC[C@@]1(C(=O)N1C3CCC1CC(O)C3)c1nnc(-c3c(F)cccc3F)cc12 (stereo partly drawn) [Example 261] .
Resp: 1140

Req: Print RORc ligand binding domain (Homo sapiens, UniProt P51449) IC50 for C[C@H](O)C(=O)N(CCC#N)C[C@@]12CC[C@@H](c3cc(-c4c(F)cccc4F)nnc31)C2(C)C [Example 324] .
Resp: 732

Req: Print RORc ligand binding domain (Homo sapiens, UniProt P51449) IC50 for CN([C@@]12CC[C@@H](c3cc(-c4c(F)cccc4F)nnc31)C2(C)C)S(=O)(=O)C(F)(F)F [Example 319] .
Resp: 52

Req: Print RORc ligand binding domain (Homo sapiens, UniProt P51449) IC50 for CC1(C)[C@@H]2CC[C@@]1(C(=O)N1CC[C@@H](O)C1)c1nnc(-c3c(F)cccc3F)cc12 [Example 238] .
Resp: 236

Req: Print RORc ligand binding domain (Homo sapiens, UniProt P51449) IC50 for CC1(C)[C@@H]2CC[C@@]1(CN1CCCC1=O)c1nnc(-c3ccccc3F)cc12 [Example 18] .
Resp: 4810
